Reported Ki is given for each of the following compounds.
Target: rat A1 receptors (Rattus norvegicus)
Construct: to A1 receptors from rat cerebral cortical membranes; from tissue; host or cells: rat cerebral cortical membranes
Sequence (P25099 1-326): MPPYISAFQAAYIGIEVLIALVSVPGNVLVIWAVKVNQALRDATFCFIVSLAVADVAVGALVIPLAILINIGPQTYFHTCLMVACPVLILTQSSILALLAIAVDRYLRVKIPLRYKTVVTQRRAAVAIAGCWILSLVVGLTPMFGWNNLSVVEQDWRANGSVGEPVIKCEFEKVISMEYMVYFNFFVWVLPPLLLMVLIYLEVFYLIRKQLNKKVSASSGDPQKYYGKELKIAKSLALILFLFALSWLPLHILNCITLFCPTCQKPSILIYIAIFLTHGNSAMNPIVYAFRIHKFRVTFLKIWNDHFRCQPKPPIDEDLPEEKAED
Assay: Displacement of [3H]R-PIA binding to A1 receptors in rat brain membranes
Settings: read-out: Ki rA1

[
  {
    "COMPOUND": "CCCn1c(=O)c2[nH]c(-c3ccc(OCC(=O)NNC(=O)[C@H](CCC(=O)O)NC(=O)C(F)(F)F)cc3)nc2n(CCC)c1=O [Compound 24a]",
    "MEASUREMENT UNIT": "nM",
    "Ki": 70.8
  },
  {
    "COMPOUND": "CCCn1c(=O)c2[nH]c(-c3ccc(OCC(=O)NN4C(=O)CC[C@H](NC(=O)C(F)(F)F)C4=O)cc3)nc2n(CCC)c1=O [Compound 24b]",
    "MEASUREMENT UNIT": "nM",
    "Ki": 53.5
  },
  {
    "COMPOUND": "CCCn1c(=O)c2[nH]c(-c3ccc(OCC(=O)NNC(=O)C4CC=CCC4C(=O)O)cc3)nc2n(CCC)c1=O (stereo not drawn) [Compound 18a]",
    "MEASUREMENT UNIT": "nM",
    "Ki": 134
  }
]
